- systemTested: UniProtKB P56373
- methodDescription: Evaluation of human P2X3 receptor inhibitory activity (Test Example 1-2, FLIPR 384, 384-well, 150 nM ATP)
- Format: cell-based
- conditionParameters: human P2X3 receptor in C6BU-1 cells; Test Example 1-2 (compounds I-301 to I-483); read-out: P2X3 IC50
assayEndpoint: IC50 (nM)
One number for each entry, in nM.

Recorded IC50, per entry:
Cc1nc(Nc2cc(=O)n(C[C@H](C)C(=O)O)c(=O)n2Cc2ccc(Cl)cc2)ccc1Oc1ccc(F)cn1 : 8
Cc1cc(NC(=O)c2cn(Cc3ccc(Cl)cc3)c(Nc3ccc(Oc4cccc(F)n4)cc3)nc2=O)no1 : 80
Cc1nc(Nc2cc(=O)n(CCCC(=O)O)c(=O)n2Cc2ccc(Cl)cc2)ccc1Oc1ccc(F)cn1 : 32
COC(=O)[C@H](C)[C@H](C)n1c(=O)cc(Nc2ccc(Oc3ccc(F)cn3)cc2)n(Cc2ccc(Cl)cc2)c1=O : 26
O=C(O)c1cc(Oc2ccc(/N=c3\[nH]cc(Nc4ccon4)c(=O)n3Cc3ccc(Cl)cc3)cc2)ccn1 : 7
O=C(O)c1coc(-c2c[nH]/c(=N\c3ccc(Oc4ccon4)cc3)n(Cc3ccc(Cl)cc3)c2=O)n1 : 160

Go through the items and report each one's IC50.
1. CN(C)C(=O)c1c[nH]/c(=N\c2ccc(Oc3ccon3)cc2)n(Cc2ccc(Cl)cc2)c1=O
2. O=C(NCC1COCCO1)c1cn(Cc2ccc(Cl)cc2)c(Nc2ccc(Oc3cccc(F)n3)cc2)nc1=O (stereo not drawn)

Result:
[346, 96]

====

Answer each item with its documented pIC50.
- systemTested: human P2X3 receptor (Homo sapiens (Human))
- methodDescription: Evaluation of human P2X3 receptor inhibitory activity (Test Example 1-2, FLIPR 384, 384-well, 150 nM ATP)
- Assay type: cell-based
- conditionParameters: human P2X3 receptor in C6BU-1 cells; Test Example 1-2 (compounds I-301 to I-483); read-out: P2X3 IC50
Answers are plain numbers, as −log10 of the molar value.

Recorded pIC50, per entry:
O=C(O)c1cccc(Oc2ccc(/N=c3\[nH]cc(-c4ccccc4)c(=O)n3Cc3ccc(Cl)cc3)cc2)n1 [Compound I-422] : 8.52
Cc1ccc(Oc2ccc(/N=c3\[nH]cc(NC(=O)[C@H]4C[C@H](O)C4)c(=O)n3Cc3ccc(Cl)cc3)cc2)nn1 [Compound I-308] : 8.30
CCn1c(=O)[nH]c(Nc2ccc(Oc3cccc(C(=O)O)n3)cc2)c(Cc2ccc(Cl)cc2)c1=O [Compound I-457] : 8.05
Cc1nnc(-c2c[nH]/c(=N\c3ccc(Oc4cccc(C(=O)O)n4)cc3)n(Cc3ccc(Cl)cc3)c2=O)o1 [Compound I-328] : 7.96

// moving on: another record for pIC50
Problem: Which pIC50 value belongs to CCCn1c(=O)c(F)c(Nc2ccc(Oc3cccc(C#N)n3)c(C)n2)n(Cc2ccc(Cl)cc2)c1=O [Compound I-301] ?
Result: 6.79

====

- systemTested: human P2X3 receptor (Homo sapiens (Human), UniProt P56373)
- Sequence (P56373 whole entry): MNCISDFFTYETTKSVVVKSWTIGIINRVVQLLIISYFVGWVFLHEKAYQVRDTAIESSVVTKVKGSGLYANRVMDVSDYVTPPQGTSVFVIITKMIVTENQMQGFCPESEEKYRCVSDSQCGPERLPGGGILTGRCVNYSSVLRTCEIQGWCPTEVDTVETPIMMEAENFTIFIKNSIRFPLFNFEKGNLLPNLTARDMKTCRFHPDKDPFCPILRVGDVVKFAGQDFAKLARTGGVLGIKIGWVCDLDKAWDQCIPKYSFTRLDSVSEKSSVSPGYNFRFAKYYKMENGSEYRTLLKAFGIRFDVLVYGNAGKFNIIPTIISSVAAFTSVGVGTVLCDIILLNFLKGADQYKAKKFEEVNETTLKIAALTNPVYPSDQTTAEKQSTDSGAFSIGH
- methodDescription: Evaluation of human P2X3 receptor inhibitory activity (Test Example 1-1, FDSS 3000, 96-well, 50 nM ATP)
- Type: cell-based
- conditionParameters: human P2X3 receptor in C6BU-1 cells; Test Example 1-1 (compounds I-001 to I-300)
Answer each item with its documented pIC50.
Numbers only, as −log10 of the molar value.

CC(=O)N(C)c1c[nH]/c(=N\c2ccc(Oc3cccc(C(=O)O)n3)cc2)n(Cc2ccc(Cl)cc2)c1=O : 7.77
O=C(Nc1c[nH]/c(=N\c2ccc(Oc3ccon3)cc2)n(Cc2ccc(Cl)cc2)c1=O)C1CCOC1 (stereo not shown) [Compound I-213] : 7.57
O=c1c(NC(=O)[C@H]2C[C@H](F)C2)c[nH]/c(=N\c2ccc(Oc3ccon3)cc2)n1Cc1ccc(Cl)cc1 : 7.77
N#Cc1cc(Oc2ccc(Nc3nc(=O)c(C(=O)NC4CCOCC4)cn3Cc3ccc(Cl)cc3)cc2)ccn1 : 8.22
CC(c1ccc(Cl)cc1)n1cc(C(=O)NC2CCOCC2)c(=O)nc1Nc1ccc(Oc2cccc(F)n2)cc1 (stereo not shown) : 6.76
O=C(NC1CCOCC1)c1cn(Cc2cccc(F)c2)c(Nc2ccc(Oc3cccc(F)n3)cc2)nc1=O : 6.65
CCCn1c(=O)cc(Nc2ccc(Oc3cnc(C(=O)O)nc3)cn2)n(Cc2ccc(Cl)cc2)c1=O : 7.02
CCCn1c(=O)cc(Nc2ccc(Oc3cccc(C(=O)O)c3)c(C)n2)n(Cc2ccc(Cl)cc2)c1=O : 7.80

Go through the items and report each one's pIC50.
1. CCc1oc2ccc(Nc3ncc(C(=O)NCCO)c(=O)n3Cc3ccc(Cl)cc3)cc2c1C
2. Cc1ccc(Oc2ccc(Nc3nc(=O)c(C(=O)NC4CCOCC4)cn3Cc3ccc(Cl)cc3)cc2)nn1

Result:
[7.47, 8.15]

====

- systemTested: human P2X3 receptor (Homo sapiens (Human), UniProt P56373)
- methodDescription: Evaluation of human P2X3 receptor inhibitory activity (Test Example 1-1, FDSS 3000, 96-well, 50 nM ATP)
- Type: cell-based
- conditionParameters: human P2X3 receptor in C6BU-1 cells; Test Example 1-1 (compounds I-001 to I-300)
assayEndpoint: pIC50
Answers are plain numbers, as −log10 of the molar value.

Recorded pIC50, per entry:
CCC(=O)Nc1c[nH]/c(=N\c2ccc(Oc3cnc(C(=O)O)cn3)cc2)n(Cc2ccc(Cl)cc2)c1=O : 8.00
CCC(=O)Nc1c[nH]/c(=N\c2ccc(Oc3ccnc(C(=O)OC)c3)cc2)n(Cc2ccc(Cl)cc2)c1=O : 7.96
CC(=O)Nc1cnc(Nc2ccc(Oc3cccnn3)cc2)n(Cc2ccc(Cl)cc2)c1=O : 7.17
CCc1oc2ccc(Nc3nc(=O)c(C(=O)NC(C)C)cn3Cc3ccc(Cl)cc3)cc2c1C : 7.03
Cc1cc(/N=c2\[nH]cc(C(N)=O)c(=O)n2Cc2ccc(Cl)cc2)ccc1Oc1cccc(F)n1 : 7.80

Go through the items and report each one's pIC50.
1. Cc1ccc(Oc2ccc(Nc3ncc(NC(=O)C4CCOCC4)c(=O)n3Cc3ccc(Cl)cc3)cc2)nn1
2. COC(=O)[C@@H](C)Cn1c(=O)cc(Nc2ccc(Oc3cccc(C#N)n3)c(F)c2)n(Cc2ccc(Cl)cc2)c1=O
3. CC(=O)Nc1cnc(Nc2ccc(Oc3ccon3)cc2)n(Cc2ccc(Cl)cc2)c1=O
4. CCCn1c(=O)cc(Nc2ccc(Oc3cccc(C(=O)O)c3)cn2)n(Cc2ccc(Cl)cc2)c1=O
5. O=C(Nc1c[nH]/c(=N\c2ccc(Oc3ccon3)cc2)n(Cc2ccc(Cl)cn2)c1=O)C1CCOCC1
6. O=C(Nc1c[nH]/c(=N\c2ccc(Oc3ccon3)cc2)n(Cc2ccc(F)cc2)c1=O)C1CCOCC1
7. CCn1c(=O)cc(Nc2ccc(Oc3cccc(C(N)=O)c3)cc2)n(Cc2ccc(Cl)cc2)c1=O

Result:
1: 9.00; 2: 8.52; 3: 7.00; 4: 7.46; 5: 7.29; 6: 7.62; 7: 7.85

Go through the items and report each one's pIC50.
1. CCn1c(=O)cc(Nc2ccc(Oc3nc(C)c(C(=O)O)s3)cc2)n(Cc2ccc(Cl)cc2)c1=O
2. CCn1c(=O)cc(Nc2ccc(Oc3cccc(C#N)n3)cc2)n(Cc2ccc(Cl)cc2)c1=O
3. N#Cc1cnc(Oc2ccc(Nc3nc(=O)c(C(=O)NC4CCOCC4)cn3Cc3ccc(Cl)cc3)cc2)cn1
4. CCn1c(=O)cc(Nc2ccc(Oc3ccc(C(=O)O)cc3)nc2)n(Cc2ccc(Cl)cc2)c1=O
5. C[C@@H](Cn1c(=O)cc(Nc2ccc(Oc3cccc(C(N)=O)n3)c(F)c2)n(Cc2ccc(Cl)cc2)c1=O)C(=O)O
6. CCn1c(=O)cc(Nc2cnc(Oc3cccc(C(N)=O)c3)cn2)n(Cc2ccc(Cl)cc2)c1=O
7. Cc1nsc(Oc2ccc(/N=c3\[nH]cc(C(=O)N(C)C)c(=O)n3Cc3ccc(Cl)cc3)cc2)n1

Result:
1: 8.52; 2: 8.30; 3: 8.05; 4: 6.37; 5: 8.52; 6: 6.36; 7: 7.19

Go through the items and report each one's pIC50.
1. C[C@@H](Cn1c(=O)cc(Nc2ccc(Oc3cccc(F)n3)cc2)n(Cc2ccc(Cl)cc2)c1=O)C(=O)O
2. CCc1oc2ccc(/N=c3\[nH]cc(CC(=O)O)c(=O)n3Cc3ccc(Cl)cc3)cc2c1C
3. COC(=O)[C@@H](C)Cn1c(=O)cc(Nc2ccc(Oc3cccc(F)c3)c(C)n2)n(Cc2ccc(Cl)cc2)c1=O
4. CCn1c(=O)cc(Nc2ccc(Oc3cccc(C(=O)O)c3)c(C)n2)n(Cc2ccc(Cl)cc2)c1=O
5. O=C(NC1CCOCC1)c1cn(Cc2ccc(Cl)cc2)c(Nc2ccc(Oc3ccncc3)cc2)nc1=O
6. CCCn1c(=O)cc(Nc2ccc(Oc3cccc(C(=O)O)n3)c(C)n2)n(Cc2ccc(Cl)cc2)c1=O
7. CCOC(=O)c1cnc(Nc2ccc(Oc3cccc(C(N)=O)n3)cc2)n(Cc2ccc(Cl)cc2)c1=O
8. O=C(Nc1c[nH]/c(=N\c2ccc(Oc3ccon3)cc2)n(Cc2ccc(Cl)cc2)c1=O)c1ccncc1

Result:
[8.22, 6.08, 6.19, 7.57, 8.10, 8.22, 8.15, 7.17]

Problem: Which pIC50 value belongs to CCC(=O)Nc1c[nH]/c(=N\c2ccc(Oc3ccnc(CO)c3)cc2)n(Cc2ccc(Cl)cc2)c1=O ?
Result: 7.68
